System: K562
assay overview: cell viability relative to vehicle control; higher = less cytotoxic;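 also: after 48 h exposure read by CellTiter-Glo luminescence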
experimental context: 10 µM; SRSF2 genotype: SRSF2 wt/wt
Structures can show the parent of a compound that is named as a salt.
Entries and their measured cell viability follow.
Phrase the answer as number then unit, nothing more needed.

### Prompt Assign cell viability to the following record: Cc1cc(N2CCN([C@@H]3CN[C@H](C(=O)N4CCSC4)C3)CC2)n(-c2ccccc2)n1 [Teneligliptin hydrobromide]
### Response 83.5%

Others:
### Prompt Assign cell viability to the following record: COC(=O)C1=C(C)NC(C)=C(C(=O)OCCN2CCN(C(c3ccccc3)c3ccccc3)CC2)C1c1cccc([N+](=O)[O-])c1 (stereo not given)
### Response 53.3%

### Prompt Assign cell viability to the following record: CCn1c(N)c(C(=O)NC)c(=O)c2ccc(C#CC(C)(O)COC)nc21 (stereo not given)
### Response 97.9%

### Prompt Assign cell viability to the following record: `Cc1ncc([N+](=O)[O-])n1C`
### Response 105%

### Prompt Assign cell viability to the following record: `COc1cc2nc(N3CCCC3)nc(NCCCCCN3CCCC3)c2cc1OC`
### Response 4.26%

###

Entries and their measured cell viability follow.
Test system: MARIMO
assay overview: cell viability relative to vehicle control; higher = less cytotoxic
experimental context: 10 µM; SRSF2 genotype: SRSF2 P95H/wt
# value in %; strip the unit string

Below, 5 molecules whose answers are already recorded.
### Prompt Assign cell viability to the following record: `CN[C@@H](C)C(=O)N[C@H](C(=O)N1CCC[C@H]1C(=O)N[C@H](C(=O)NCCCCCCNC(=O)[C@@H](NC(=O)[C@@H]1CCCN1C(=O)[C@@H](NC(=O)[C@H](C)NC)C1CCCCC1)C(c1ccccc1)c1ccccc1)C(c1ccccc1)c1ccccc1)C1CCCCC1`
### Response 29.5

### Prompt Assign cell viability to the following record: `N#CC(=C(/N)Sc1ccccc1N)/C(C#N)=C(\N)Sc1ccccc1N`
### Response 38.2

### Prompt Assign cell viability to the following record: `Oc1c(F)cc(-c2cnccc2-c2ccc(N3CCOCC3)cc2)cc1F`
### Response 97.5

### Prompt Assign cell viability to the following record: O=C(/C=C/c1ccc(O)cc1)c1ccc(O)cc1O [Isoliquiritigenin]
### Response 83.3

### Prompt Assign cell viability to the following record: C=C1CC[C@@H]2[C@](C)(COC(=O)CCC(=O)O)[C@H](OC(=O)CCC(=O)O)CC[C@@]2(C)[C@@H]1/C=C/C1=CCOC1=O [Dehydroandrographolide Succinate Potasium Sa]
### Response 105

Then this molecule:
### Prompt Assign cell viability to the following record: Nc1ncnc2c1ncn2[C@@H]1O[C@H](CO)C[C@H]1O [Cordycepin]
### Response 90.4

###

Tested on: MOLM14
assay overview: cell viability relative to vehicle control; higher = less cytotoxic
experimental context: 10 µM; SRSF2 genotype: SRSF2 P95H/wt
Rule: measured cell viability below 90% gets true; anything equal to or greater than 90% gets false.

Answered cases to consult:
### Prompt is_below(cell viability, 90%) for `C=C1/C(=C\C=C2/CCC[C@]3(C)[C@@H]([C@H](C)/C=C/[C@@H](O)C4CC4)CC[C@@H]23)C[C@@H](O)C[C@@H]1O` ?
### Response true

### Prompt is_below(cell viability, 90%) for CC(C)CC(NC(=O)C(Cc1ccccc1)CC(O)C(Cc1ccccc1)NC(=O)OC(C)(C)C)C(=O)NC(Cc1ccccc1)C(N)=O (configuration not stated) ?
### Response false

### Prompt is_below(cell viability, 90%) for `C[C@H](CCC(=O)O)[C@H]1CC[C@H]2[C@@H]3CC[C@@H]4C[C@H](O)CC[C@]4(C)[C@H]3C[C@H](O)[C@]12C` ?
### Response false

### Prompt is_below(cell viability, 90%) for COc1cc2nccc(Oc3ccc(NC(=O)C4(C(=O)Nc5ccc(F)cc5)CC4)cc3)c2cc1OC [Cabozantinib malate] ?
### Response true

### Prompt is_below(cell viability, 90%) for CCCCCC(=O)O[C@]1(C(C)=O)CC[C@H]2[C@@H]3CCC4=CC(=O)CC[C@]4(C)[C@H]3CC[C@@]21C [Hydroxyprogesterone caproate] ?
### Response true

Others:
### Prompt is_below(cell viability, 90%) for CC(N)C12CC3CC(CC(C3)C1)C2 (configuration not stated) ?
### Response false

### Prompt is_below(cell viability, 90%) for `CCCCOc1ccc(CC(=O)NO)cc1` ?
### Response true

### Prompt is_below(cell viability, 90%) for NC[C@H](O)c1ccc(O)c(O)c1 [Noradrenaline bitartrate monohydrate (Levoph] ?
### Response true

### Prompt is_below(cell viability, 90%) for COC(=O)C1=CO[C@@H](O[C@@H]2O[C@H](CO)[C@@H](O)[C@H](O)[C@H]2O)[C@@H]2C(CO)=CC[C@H]12 [Geniposide] ?
### Response false

### Prompt is_below(cell viability, 90%) for `CCS(=O)(=O)c1cccc(-c2cc(C(=O)NC3CCN(C)CC3)c(C)c3[nH]c4ncc(C)cc4c23)c1` ?
### Response true

### Prompt is_below(cell viability, 90%) for `O=[N+]([O-])c1ccc(Sc2cccc[n+]2[O-])c2nonc12` ?
### Response true

###

Entries and their measured cell viability follow.
System: MARIMO
assay overview: cell viability relative to vehicle control; higher = less cytotoxic
experimental context: 10 µM; SRSF2 genotype: SRSF2 wt/wt
# value in %; strip the unit string

Below, 4 compounds whose answers are already recorded.
### Prompt Assign cell viability to the following record: `CN(C)CC[C@H](CSc1ccccc1)Nc1ccc(S(=O)(=O)NC(=O)c2ccc(N3CCN(Cc4ccccc4-c4ccc(Cl)cc4)CC3)cc2)cc1[N+](=O)[O-]`
### Response 1.66

### Prompt Assign cell viability to the following record: O=c1c(-c2ccc(O)cc2)coc2cc(O[C@@H]3O[C@H](CO)[C@@H](O)[C@H](O)[C@H]3O)cc(O)c12 [Genistin (Genistoside)]
### Response 98

### Prompt Assign cell viability to the following record: O=C(NC(Cc1cc(=O)[nH]c2ccccc12)C(=O)O)c1ccc(Cl)cc1 (stereo not given) [Rebamipide]
### Response 100

### Prompt Assign cell viability to the following record: Nc1ncnc2c1ncn2C(C=O)OC(C=O)CO (stereo not given)
### Response 59.4

Then this compound:
### Prompt Assign cell viability to the following record: CCCCNc1cc(C(=O)O)cc(S(N)(=O)=O)c1Oc1ccccc1 [Bumetanide]
### Response 108

###

Test system: MARIMO
assay overview: cell viability relative to vehicle control; higher = less cytotoxic
experimental context: 10 µM; SRSF2 genotype: SRSF2 P95H/wt
Where a name gives a salt, the structure may show the parent alone.
experimental endpoint: cell viability (%)
# value in %; strip the unit string

Below, 4 compounds whose answers are already recorded.
### Prompt Assign cell viability to the following record: CC(=O)OCC(=O)[C@@]12OC(C)(C)O[C@@H]1C[C@H]1[C@@H]3C[C@H](F)C4=CC(=O)C=C[C@]4(C)[C@@]3(F)[C@@H](O)C[C@@]12C [Fluocinonide (Vanos)]
### Response 110

### Prompt Assign cell viability to the following record: `C[C@@H]1COCCN1c1cc(C2(S(C)(=O)=O)CC2)nc(-c2cccc3[nH]ccc23)n1`
### Response 20.2

### Prompt Assign cell viability to the following record: Cc1nc(Nc2ccc(F)cc2)nc(N2CCc3ccccc3C2C)c1C (stereo not given) [Revaprazan Hydrochloride]
### Response 67.6

### Prompt Assign cell viability to the following record: `O=c1cc(CN2CCOCC2)occ1OCCCCCSc1ccnc2cc(C(F)(F)F)ccc12`
### Response 49.4

Then this compound:
### Prompt Assign cell viability to the following record: `OCCc1c[nH]c2ccccc12`
### Response 100

###

Tested on: MARIMO
assay overview: cell viability relative to vehicle control; higher = less cytotoxic
experimental context: 10 µM; SRSF2 genotype: SRSF2 wt/wt
Where a name gives a salt, the structure may show the parent alone.
experimental endpoint: cell viability (%)
# value in %; strip the unit string

Below, 5 compounds whose answers are already recorded.
### Prompt Assign cell viability to the following record: CN(C)CC/C=C1/c2ccccc2COc2ccc(CC(=O)O)cc21 [Olopatadine hydrochloride (Opatanol)]
### Response 114

### Prompt Assign cell viability to the following record: `Cn1cc(-c2ccc3nnc(C(F)(F)c4ccc5ncccc5c4)n3n2)cn1`
### Response 105

### Prompt Assign cell viability to the following record: COc1ccccc1N1CCN(CCCNc2cc(=O)n(C)c(=O)n2C)CC1 [Urapidil hydrochloride]
### Response 102

### Prompt Assign cell viability to the following record: C[C@@H](c1ncncc1F)[C@](O)(Cn1cncn1)c1ccc(F)cc1F [Voriconazole]
### Response 106

### Prompt Assign cell viability to the following record: `Cc1ccc(S(=O)(=O)C=CC#N)cc1`
### Response 0.39

Others:
### Prompt Assign cell viability to the following record: Cc1nnc(C(=O)NC(C)(C)c2nc(C(=O)NCc3ccc(F)cc3)c(O)c(=O)n2C)o1 [Raltegravir (MK-0518)]
### Response 103

### Prompt Assign cell viability to the following record: O=c1[nH]cc(F)c(=O)[nH]1 [Adrucil (Fluorouracil)]
### Response 67.4

### Prompt Assign cell viability to the following record: `O=C1/C(=C/c2cccs2)CC/C1=C\c1cccs1`
### Response 104
